molecular target: Nav 1.7 (Homo sapiens (Human), UniProt Q15858); experiment: in-vitro Nav 1.7 PX data; format: cell-based; conditions: in-vitro PX data
Sequence (Q15858 whole entry): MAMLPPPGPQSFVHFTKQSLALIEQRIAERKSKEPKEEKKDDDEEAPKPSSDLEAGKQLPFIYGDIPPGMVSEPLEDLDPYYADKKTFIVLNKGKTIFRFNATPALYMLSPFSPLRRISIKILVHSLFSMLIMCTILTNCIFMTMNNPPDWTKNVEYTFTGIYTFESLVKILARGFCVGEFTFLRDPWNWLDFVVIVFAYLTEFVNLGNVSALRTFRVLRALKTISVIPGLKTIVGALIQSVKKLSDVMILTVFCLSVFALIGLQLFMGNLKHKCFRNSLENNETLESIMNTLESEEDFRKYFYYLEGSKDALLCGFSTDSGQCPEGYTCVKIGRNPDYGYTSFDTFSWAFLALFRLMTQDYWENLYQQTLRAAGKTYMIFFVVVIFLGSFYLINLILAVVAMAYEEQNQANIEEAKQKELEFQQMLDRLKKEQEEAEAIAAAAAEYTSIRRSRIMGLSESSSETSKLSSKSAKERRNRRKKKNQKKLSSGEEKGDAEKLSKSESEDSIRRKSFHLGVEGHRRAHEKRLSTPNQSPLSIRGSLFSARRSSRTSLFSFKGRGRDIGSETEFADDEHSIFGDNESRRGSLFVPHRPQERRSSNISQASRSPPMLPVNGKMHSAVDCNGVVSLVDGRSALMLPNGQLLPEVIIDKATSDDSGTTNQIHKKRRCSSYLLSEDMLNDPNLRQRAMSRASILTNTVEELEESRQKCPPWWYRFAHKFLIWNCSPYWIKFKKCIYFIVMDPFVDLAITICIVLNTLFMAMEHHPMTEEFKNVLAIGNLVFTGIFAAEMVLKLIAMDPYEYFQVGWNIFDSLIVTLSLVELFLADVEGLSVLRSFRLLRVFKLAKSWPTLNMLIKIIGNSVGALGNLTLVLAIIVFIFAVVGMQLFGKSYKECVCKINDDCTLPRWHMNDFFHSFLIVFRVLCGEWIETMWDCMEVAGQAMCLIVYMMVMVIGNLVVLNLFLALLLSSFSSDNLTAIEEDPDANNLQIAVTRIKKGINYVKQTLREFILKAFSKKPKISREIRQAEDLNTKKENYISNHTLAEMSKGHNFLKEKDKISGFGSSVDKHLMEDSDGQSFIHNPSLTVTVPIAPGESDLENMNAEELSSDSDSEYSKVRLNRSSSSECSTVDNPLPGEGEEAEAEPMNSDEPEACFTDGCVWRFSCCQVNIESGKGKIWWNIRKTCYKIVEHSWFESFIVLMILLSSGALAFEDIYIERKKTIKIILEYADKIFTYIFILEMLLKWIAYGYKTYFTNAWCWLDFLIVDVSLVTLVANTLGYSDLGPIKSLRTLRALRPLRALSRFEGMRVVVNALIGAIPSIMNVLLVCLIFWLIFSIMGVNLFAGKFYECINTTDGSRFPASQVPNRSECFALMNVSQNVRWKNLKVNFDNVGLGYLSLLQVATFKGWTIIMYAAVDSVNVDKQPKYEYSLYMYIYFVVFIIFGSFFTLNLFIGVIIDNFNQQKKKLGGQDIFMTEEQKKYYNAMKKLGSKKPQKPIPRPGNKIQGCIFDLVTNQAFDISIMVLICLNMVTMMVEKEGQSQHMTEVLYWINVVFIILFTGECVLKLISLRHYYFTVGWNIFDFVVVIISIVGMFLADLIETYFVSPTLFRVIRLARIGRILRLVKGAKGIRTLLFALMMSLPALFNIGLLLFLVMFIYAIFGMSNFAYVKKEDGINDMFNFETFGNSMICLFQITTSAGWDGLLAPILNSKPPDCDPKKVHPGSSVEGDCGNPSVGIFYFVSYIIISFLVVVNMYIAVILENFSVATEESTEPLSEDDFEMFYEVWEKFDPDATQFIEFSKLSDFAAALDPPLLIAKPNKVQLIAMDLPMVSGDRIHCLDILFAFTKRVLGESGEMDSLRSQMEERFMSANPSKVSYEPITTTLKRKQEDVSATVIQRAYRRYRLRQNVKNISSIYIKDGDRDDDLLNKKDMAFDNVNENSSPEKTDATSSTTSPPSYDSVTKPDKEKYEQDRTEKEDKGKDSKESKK
measured endpoint: IC50 (nM)

# example entries with known answers
COc1cc(-c2cc(F)cc(F)c2)ccc1-c1nccc2cc(S(=O)(=O)Nc3ncco3)ccc12 [Example 137] :: 360
COc1cc(-c2cccc(F)c2)c(Cl)cc1-c1nncc2cc(S(=O)(=O)Nc3ncccn3)ccc12 [Example 113] :: 95
COc1cc(-c2ccc(Cl)c(F)c2)c(Cl)cc1-c1nccc2cc(S(=O)(=O)Nc3ccon3)ccc12 [Example 101] :: 73.9
COc1cc(-c2cc(F)cc(F)c2)ccc1-c1nccc2cc(S(=O)(=O)Nc3ncc(F)cn3)ccc12 [Example 135] :: 378

1: COc1cc(-c2cc(F)cc(F)c2)ccc1-c1nccc2cc(S(=O)(=O)Nc3cc(C)on3)ccc12 [Example 126]
2: COc1cc(-c2cc(F)cnc2OC)c(Cl)cc1-c1nccc2cc(S(=O)(=O)Nc3ccon3)ccc12 [Example 105]
q: Among 1 and 2 , which shows a numerically higher IC50 result? Return value: the label identifying the chosen record.
a: 1

---

molecular target: Nav 1.7 (Homo sapiens (Human)); experiment: Nav 1.7 in vitro PX assay (PatchXpress whole cell voltage clamp); assay type: cell-based; conditions: PatchXpress (PX);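 note: holding potential set for 20 to 50% inactivation, sodium current evoked by a 20 ms step to −10 mV, peak current inhibition read after compound exposure, 3–5 cells per concentration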
pIC50: −log10 of the molar value.
measured endpoint: pIC50

1: COc1cc(-c2cccc(C)c2)c(C)cc1-c1nccc2cc(S(=O)(=O)Nc3ccon3)ccc12
2: COc1ccc(Cl)cc1-c1cc(OC)c(-c2ncnc3cc(S(=O)(=O)Nc4ccon4)ccc23)cc1C
3: COc1cc(-c2cc(C)c(C)cc2C)c(C)cc1-c1ncnc2cc(S(=O)(=O)Nc3ccon3)ccc12
4: COc1cc(-c2cccc(F)c2)c(Cl)cc1-c1nccc2cc(S(=O)(=O)Nc3ccsn3)ccc12
5: COc1cc(-c2cccc(F)c2)c(Cl)cc1-c1nnc(OC)c2cc(S(=O)(=O)Nc3ccon3)ccc12
q: Order the records by pIC50, with each subsequent value no larger than the one before. Labels, requested order.
a: 2, 5, 3, 1, 4
(2: 7.74, 5: 7.49, 3: 7.20, 1: 6.77, 4: 6.54)

P: COc1cc(Cl)c(C)cc1-c1nccc2cc(S(=O)(=O)Nc3ccon3)ccc12
Q: COc1cc(-c2ccc(F)c(C)c2)c(C)cc1-c1nccc2cc(S(=O)(=O)Nc3ccon3)ccc12
R: COc1cc(-c2cccc(Cl)c2)c(C)cc1-c1ncnc2cc(S(=O)(=O)Nc3ccon3)ccc12
S: COc1cc(C(F)F)c(C2CC2)cc1-c1nccc2cc(S(=O)(=O)Nc3ccon3)ccc12
q: Ordering criterion: pIC50; begin with the maximum. Answer format: the labels, ordered as requested.
a: R, Q, P, S
(R: 7.92, Q: 7.20, P: 6.73, S: 6.37)

A: COc1cc(-c2ccc(Cl)c(C)c2)c(C)cc1-c1nccc2cc(S(=O)(=O)Nc3ccon3)ccc12
B: COc1cc(C(F)(F)F)c(C)cc1-c1nccc2cc(S(=O)(=O)Nc3ccon3)ccc12
C: COc1cc(-c2cccc(F)c2)c(Cl)cc1-c1nccc2cc(S(=O)(=O)Nc3cscn3)ccc12
q: Your job: order these 3 records by pIC50, ascending. Response format: the labels, sorted as the prompt asks.
a: C, B, A
